- System: human lung cancer cells A549
- ASSAY_PROCEDURE: MTT assay, survival/growth of cultured human lung cancer cells A549
- Assay type: cell-based
- CONDITION_DETAILS: Homo sapiens, 144 h; figure legends; survival of cultured A549 cells, MTT, six days after drug treatment; read-out: ED50 (the source's name)
Below, each of the molecules is paired with its reported EC50 value.

Use these answered entries as a reference point.
1. CCNCCCCNCCCCNCCCCNCCCCNCC [BE-4444, reference compound] ... > 31.2 µM
2. CCNC/C=C\CNCCCCNCCCCNCC ... 0.214 µM
3. CCNCCCCNC/C=C/CNCCCCNCC ... 2.2 µM

Please look at this molecule and report its EC50: CCNCCCCNC/C=C\CNC/C=C\CNCCCCNCC
> 31.2 µM

Retrieve EC50 measured for CCNCCCCNC/C=C\CNCCCCNCCCCNCC and print it.
> 31.2 µM

Read the entry CCNC/C=C\CNC/C=C\CNC/C=C\CNC/C=C\CNCC and write its reported EC50.
> 31.2 µM

Source of measurements: patent US7186825B2
